// provenance: patent US20100248359A1

# tgt: T1, soluble form of GPC3 core protein (human, UniProt P51654 25-563)
# T1 construct: not shown: His tag added to the C-terminus
# method_summary: competitive ELISA on coated soluble GPC3 core protein; labelled competitor biotin-M5B9;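 further: Biotin-labelled antibody added as 10 µL at 10 µg/mL for 1 h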
measured_metric: Inhibition of the binding of indicated biotin-Mab to sGPC3 core (%)
Give just the numeric value; % need not be written.

Query: Sample M18D4 (antibody, human IgG1, kappa, V domains shown, Mouse monoclonal from hybridoma) VH: EVQLQQSGTVLARPGASVKMSCKASGYTFTGYWMRWVKQRPGQGLEWIGAIYPGNSDTTYNQKFKGKAKLTAVTSVSTAYMELSSLTNEDSAVYYCSRSGDLTGGFAYWGQGTLVTVST VL: DIVMTQAAFSNPVTLGTSTSISCRSSKSLLHSNGITYLYWYLQKPGQSPQLLIYQMSNLASGVPDRFSSSGSGTDFTLRISRVEAEDVGVYYCAQNLELPYTFGSGTKLEIKR — what was its Inhibition of the binding of indicated biotin-Mab to sGPC3 core (%)?
Response: 89.4
